This collection of values is drawn from patent US11279733B2.

Test system: HEK293 cells
Assay: in vitro
Conditions: human, 24 h
Starred links: 1 amine or outer side, 2 acyl side, 3 side chain; linkers in the order of their positions; H or OH if unused. Positions of bridges follow the written chain, without caps; N, C: chain ends. Non-standard residues stand in square brackets, D forms with d. Residues, ends and D or L forms follow the SMILES beside them. *: point of attachment. Decanoyl(3R-OH) = CCCCCCC[C@@H](O)CC(=O)*; azaDab = NCCN(N[*:1])C(=O)[*:2]; dDab = NCC[C@@H](N)C(=O)O; Dab = NCC[C@H](N)C(=O)O
reported.endpoint: CC50

CC50 recorded for this compound, CCCCCCC[C@@H](O)CC(=O)N[C@H](CCN)C(=O)N[C@H]1CCNC(=O)[C@H](CC(C)C)NC(=O)[C@H](CCN)NC(=O)N(CCN)NC(=O)[C@H](CC(C)C)NC(=O)[C@@H](Cc2ccccc2)NC(=O)[C@H](CCN)NC1=O [compound 8641] ({Decanoyl(3R-OH)}-[dDab][Dab][Dab][dF]L[azaDab][Dab]L; lactam 2-C) , is > 300 µM

---

Assay: in vitro
Conditions: human
Positions of bridges follow the written chain, without caps; N, C: chain ends. Non-standard residues stand in square brackets, D forms with d. Residues, ends and D or L forms follow the SMILES beside them. *: point of attachment. Decanoyl(3R-OH) = CCCCCCC[C@@H](O)CC(=O)*; dChg = N[C@@H](C(=O)O)C1CCCCC1; dDab = NCC[C@@H](N)C(=O)O; Dab = NCC[C@H](N)C(=O)O
reported.endpoint: CC50 at 24 h (µM)
// note: answer is a bare numeric in µM

Lab book: CC50 at 24 h of CCCCCCC[C@@H](O)CC(=O)N[C@H](CCN)C(=O)N[C@H]1CCNC(=O)[C@H](Cc2c[nH]c3ccccc23)NC(=O)[C@H](CCN)NC(=O)[C@H](CCN)NC(=O)[C@H](CC(C)C)NC(=O)[C@@H](C2CCCCC2)NC(=O)[C@H](CCN)NC1=O [compound 8899] ({Decanoyl(3R-OH)}-[dDab][Dab][Dab][dChg]L[Dab][Dab]W; lactam 2-C) noted as 64

CC50 at 24 h in this record for CCCCCCC[C@@H](O)CC(=O)N[C@H](CCCNC(=N)N)C(=O)N[C@H]1CCNC(=O)[C@H](Cc2c[nH]c3ccccc23)NC(=O)[C@H](CCN)NC(=O)[C@H](CCN)NC(=O)[C@H](CC(C)C)NC(=O)[C@@H](Cc2ccccc2)NC(=O)[C@H](CCN)NC1=O [compound 8884] ({Decanoyl(3R-OH)}-[dR][Dab][Dab][dF]L[Dab][Dab]W; lactam 2-C) : 73

---

Experiment: in vitro
Settings: human
Positions of bridges follow the written chain, without caps; N, C: chain ends. Non-standard residues stand in square brackets, D forms with d. Residues, ends and D or L forms follow the SMILES beside them. *: point of attachment. Decanoyl(3R-OH) = CCCCCCC[C@@H](O)CC(=O)*; Octanoyl(3-OH) = CCCCCC(O)CC(=O)*; X9 = CCCCCC1CCC(C(=O)*)CC1; dDab = NCC[C@@H](N)C(=O)O; Dab = NCC[C@H](N)C(=O)O; Dap = NC[C@H](N)C(=O)O
reported.endpoint: CC50 at 24 h (µM)
Give a bare numeral; the unit µM is implied.

The value of CC50 at 24 h measured for the molecule CCCCCC1CCC(C(=O)N[C@H](CCN)C(=O)N[C@H]2CCNC(=O)[C@H]([C@@H](C)O)NC(=O)[C@H](CCN)NC(=O)[C@H](CCN)NC(=O)[C@H](CC(C)C)NC(=O)[C@@H](Cc3ccccc3)NC(=O)[C@H](CCN)NC2=O)CC1 (stereo partly drawn) [compound 6404] (X9-[dDab][Dab][Dab][dF]L[Dab][Dab]T; lactam 2-C) turned out to be 38

The molecule listed as CCCCCCC[C@@H](O)CC(=O)N[C@H](CCN)C(=O)N[C@H]1CNC(=O)[C@H](CC(C)C)NC(=O)[C@H](CCN)NC(=O)[C@H](CCN)NC(=O)[C@H](CC(C)C)NC(=O)[C@@H](CC(C)C)NC(=O)[C@H](CCN)NC1=O [compound 633] ({Decanoyl(3R-OH)}-[dDab][Dap][Dab][dL]L[Dab][Dab]L; lactam 2-C) has a reported CC50 at 24 h of 104

Lab note: CCCCCCC[C@@H](O)CC(=O)N[C@H](CO)C(=O)N[C@H]1CCNC(=O)[C@H](CC(C)C)NC(=O)[C@H](CCN)NC(=O)[C@H](CCN)NC(=O)[C@H](CC(C)C)NC(=O)[C@@H](Cc2ccccc2)NC(=O)[C@H](CCN)NC1=O [compound 918] ({Decanoyl(3R-OH)}-[dS][Dab][Dab][dF]L[Dab][Dab]L; lactam 2-C) gave CC50 at 24 h of 113

Consider CCCCCCC[C@@H](O)CC(=O)N[C@H](CCN)C(=O)N[C@H]1CCNC(=O)[C@H]([C@@H](C)O)NC(=O)[C@H](CCN)NC(=O)[C@H](CCN)NC(=O)[C@H](CC(C)C)NC(=O)[C@@H](Cc2ccccc2)NC(=O)[C@H](CCN)NC1=O [compound 5387] ({Decanoyl(3R-OH)}-[dDab][Dab][Dab][dF]L[Dab][Dab]T; lactam 2-C) . Its measured CC50 at 24 h is 210

What the record says about CCCCCCC[C@@H](O)CC(=O)N[C@@H](C)C(=O)N[C@H]1CCNC(=O)[C@H](CC(C)C)NC(=O)[C@H](CCN)NC(=O)[C@H](CCN)NC(=O)[C@H](CC(C)C)NC(=O)[C@@H](Cc2ccccc2)NC(=O)[C@H](CCN)NC1=O [compound 4950] ({Decanoyl(3R-OH)}-A[Dab][Dab][dF]L[Dab][Dab]L; lactam 2-C) : CC50 at 24 h is 286

Lab note: measured CC50 at 24 h of CCCCCCC[C@@H](O)CC(=O)N[C@H](CCN)C(=O)N[C@H]1CCNC(=O)[C@H](CC(C)C)NC(=O)[C@H](CCN)NC(=O)[C@H](CCN)NC(=O)[C@H](CC(C)C)NC(=O)[C@H](C)NC(=O)[C@H](CCN)NC1=O [compound 4947] ({Decanoyl(3R-OH)}-[dDab][Dab][Dab]AL[Dab][Dab]L; lactam 2-C) was 213

Sample CCCCCCC[C@@H](O)CC(=O)N[C@@H](CCN)C(=O)N[C@H]1CCNC(=O)[C@H](CC(C)C)NC(=O)[C@H](CCN)NC(=O)[C@H](CCN)NC(=O)[C@H](C)NC(=O)[C@@H](Cc2ccccc2)NC(=O)[C@H](CCN)NC1=O [compound 5563] ({Decanoyl(3R-OH)}-[Dab][Dab][Dab][dF]A[Dab][Dab]L; lactam 2-C) ; CC50 at 24 h observed: 158

Reported CC50 at 24 h of CCCCCC(O)CC(=O)N[C@H](CCN)C(=O)N[C@H]1CCNC(=O)[C@H](CC(C)C)NC(=O)[C@H](CCN)NC(=O)[C@H](CCN)NC(=O)[C@H](CC(C)C)NC(=O)[C@@H](Cc2ccccc2)NC(=O)[C@H](CCN)NC1=O (stereo partly drawn) [compound 5012] ({Octanoyl(3-OH)}-[dDab][Dab][Dab][dF]L[Dab][Dab]L; lactam 2-C) : 130

---

Consider the following molecules; for each one, report its MIC E. coli ATCC 25922.
Test system: E. coli ATCC 25922
Conditions: ATCC 25922
Positions of bridges follow the written chain, without caps; N, C: chain ends. Non-standard residues stand in square brackets, D forms with d. Residues, ends and D or L forms follow the SMILES beside them. *: point of attachment. Decanoyl(3R-OH) = CCCCCCC[C@@H](O)CC(=O)*; Phe(4-NH2) = Nc1ccc(C[C@H](N)C(=O)O)cc1; dDab = NCC[C@@H](N)C(=O)O; Orn = NCCC[C@H](N)C(=O)O; Dab = NCC[C@H](N)C(=O)O
Entry format: amount then unit.

Reported MIC E. coli ATCC 25922 of CCCCCCC[C@@H](O)CC(=O)N[C@H](CCN)C(=O)N[C@H]1CCNC(=O)[C@H](CC(C)C)NC(=O)[C@H](Cc2ccc(N)cc2)NC(=O)[C@H](CCN)NC(=O)[C@H](CC(C)C)NC(=O)[C@@H](Cc2ccccc2)NC(=O)[C@H](CCN)NC1=O [compound 8644] ({Decanoyl(3R-OH)}-[dDab][Dab][Dab][dF]L[Dab][Phe(4-NH2)]L; lactam 2-C) : 16 µg/mL

Input CCCCCCC[C@@H](O)CC(=O)N[C@H](CCN)C(=O)N[C@H]1CCNC(=O)[C@H](CC(C)C)NC(=O)[C@H](CCCN)NC(=O)[C@H](CCN)NC(=O)[C@H](CC(C)C)NC(=O)[C@@H](Cc2ccccc2)NC(=O)[C@H](CCN)NC1=O [compound 988] ({Decanoyl(3R-OH)}-[dDab][Dab][Dab][dF]L[Dab][Orn]L; lactam 2-C) . Output MIC E. coli ATCC 25922: 2 µg/mL

response.value for CCCCCCC[C@@H](O)CC(=O)N[C@H](CCN)C(=O)N[C@H]1CCNC(=O)[C@H](Cc2ccccc2)NC(=O)[C@H](CCN)NC(=O)[C@H](CCN)NC(=O)[C@H](CC(C)C)NC(=O)[C@@H](Cc2ccccc2)NC(=O)[C@H](CCN)NC1=O [compound 5004] ({Decanoyl(3R-OH)}-[dDab][Dab][Dab][dF]L[Dab][Dab]F; lactam 2-C) (field: MIC E. coli ATCC 25922) = 8 µg/mL
